These measurements were taken from patent US11059844B2.

Tested on: Lactobacillus casei
reported-property: MIC

Example compounds with recorded MIC:
Param readout = MIC; param system = Lactobacillus casei; param query = "CC[C@H]1OC(=O)[C@H](C)[C@@H](O[C@H]2C[C@@H](N(C)C)[C@H](O)[C@@H](C)O2)[C@H](C)[C@@H](O)[C@](C)(O)C[C@@H](C)CN(C)[C@H](C)[C@@H](O)[C@]1(C)O" ; response: value
> 64 µg/mL

What value of MIC on Lactobacillus casei does CC[C@H]1OC(=O)[C@H](C)[C@@H](O[C@H]2C[C@@](C)(OC)[C@@H](O)[C@H](C)O2)[C@H](C)[C@@H](O[C@@H]2O[C@H](C)C[C@H](N(C)C)[C@H]2O)[C@](C)(O)C[C@@H](C)C(=O)[C@H](C)[C@@H](O)[C@]1(C)O [Erythromycin, reference compound] have?
< 0.25 µg/mL

Query for Lactobacillus casei: what MIC does the record show for CC[C@H]1OC(=O)[C@H](C)[C@@H](O[C@H]2C[C@@](C)(OC)[C@@H](O)[C@H](C)O2)[C@H](C)[C@@H](O[C@@H]2O[C@H](C)C[C@H](N(C)C)[C@H]2O)[C@](C)(O)C[C@@H](C)CN(C)[C@H](C)[C@@H](O)[C@]1(C)O [Azithromycin, reference compound] ?
< 1 µg/mL

Next:
Form: Entry = CC[C@H]1OC(=O)[C@H](C)[C@@H](O[C@H]2CC(NC)[C@H](O)C(C)O2)[C@H](C)[C@@H](O)[C@](C)(O)C[C@@H](C)C(=O)[C@H](C)[C@@H](O)[C@H]1C (stereo partly shown) | System = Lactobacillus casei | MIC = ____
> 64 µg/mL

* * *

Let's look at some compounds and their measured OD after addition of 10 μM test article.
tested-on: human TLR2 (Homo sapiens, UniProt O60603)
Construct: host or cells: recombinant HEK-293-TLR cell lines
Sequence (O60603 21-784): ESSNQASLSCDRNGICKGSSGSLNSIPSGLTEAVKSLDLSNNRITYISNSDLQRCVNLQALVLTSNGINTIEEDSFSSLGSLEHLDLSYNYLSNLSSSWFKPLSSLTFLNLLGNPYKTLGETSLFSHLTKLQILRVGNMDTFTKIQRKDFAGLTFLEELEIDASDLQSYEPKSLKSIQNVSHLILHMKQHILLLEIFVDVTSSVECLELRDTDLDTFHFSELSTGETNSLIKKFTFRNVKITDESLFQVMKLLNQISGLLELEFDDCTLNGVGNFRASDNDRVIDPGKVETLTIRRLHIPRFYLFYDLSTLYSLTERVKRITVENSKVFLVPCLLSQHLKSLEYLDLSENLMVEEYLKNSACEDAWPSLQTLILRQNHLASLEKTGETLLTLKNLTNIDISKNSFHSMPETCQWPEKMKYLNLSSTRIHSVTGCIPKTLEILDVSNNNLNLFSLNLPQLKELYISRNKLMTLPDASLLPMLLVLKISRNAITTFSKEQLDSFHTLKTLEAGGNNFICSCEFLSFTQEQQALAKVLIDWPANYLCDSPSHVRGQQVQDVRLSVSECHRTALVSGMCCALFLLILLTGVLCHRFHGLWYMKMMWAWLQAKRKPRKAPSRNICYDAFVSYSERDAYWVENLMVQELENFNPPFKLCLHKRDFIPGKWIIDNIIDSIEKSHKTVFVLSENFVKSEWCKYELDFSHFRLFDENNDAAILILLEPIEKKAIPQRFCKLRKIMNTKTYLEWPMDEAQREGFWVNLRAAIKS
assay-method-text: TLR2 reporter assay (HEK-293-TLR, SEAP)
Type: cell-based
condition-summary: 10 μM
Please report the result as a number followed by the unit.

Recorded OD after addition of 10 μM test article, per entry:
Could you share which OD after addition of 10 μM test article value was measured for CC[C@H]1OC(=O)[C@H](C)[C@@H](O[C@H]2CC(N(C)C)[C@H](O)C(C)O2)[C@H](C)[C@@H](O)[C@](C)(O)C[C@@H](C)N(C)C[C@H](C)[C@@H](O)[C@]1(C)O (some centres unmarked) [Compound 17] ?
0.155 OD

// query OD after addition of 10 μM test article value for entry CC[C@H]1OC(=O)[C@H](C)[C@@H](O[C@H]2CC(N(C)C)[C@H](O)C(C)O2)[C@H](C)[C@@H](O)[C@](C)(O)C[C@@H](C)C(=O)[C@H](C)[C@@H](O)[C@H]1C (some centres unmarked) [Compound 3]
−0.015 OD

Quick check: OD after addition of 10 μM test article of CC[C@H]1OC(=O)[C@H](C)[C@@H](O[C@H]2C[C@@](C)(OC)[C@@H](O)[C@H](C)O2)[C@H](C)[C@@H](O[C@@H]2O[C@H](C)C[C@H](N(C)C)[C@H]2O)[C@](C)(O)C[C@@H](C)CN(C)[C@H](C)[C@@H](O)[C@]1(C)O [Azithromycin, reference compound] ?
0.045 OD

Entry under review: CC[C@H]1OC(=O)[C@H](C)[C@@H](O[C@H]2C[C@@](C)(OC)[C@@H](O)[C@H](C)O2)[C@H](C)[C@@H](O[C@@H]2O[C@H](C)C[C@H](N(C)C)[C@H]2O)[C@](C)(O)C[C@@H](C)C(=O)[C@H](C)[C@@H](O)[C@]1(C)O [Erythromycin, reference compound] . Reported OD after addition of 10 μM test article?
0.065 OD

New cases:
Tell me the measured OD after addition of 10 μM test article of CC[C@H]1OC(=O)[C@H](C)[C@@H](O[C@H]2C[C@@H](N(C)C)[C@H](O)[C@@H](C)O2)[C@H](C)[C@@H](O)[C@](C)(O)C[C@@H](C)CN(C)[C@H](C)[C@@H](O)[C@]1(C)O [Compound 1] , please.
0.202 OD
